Quick reference: Kd of the listed items.
# Target Desc: βarr1 (Rattus norvegicus)
# Construct: made in house
# Sequence (P29066 whole entry): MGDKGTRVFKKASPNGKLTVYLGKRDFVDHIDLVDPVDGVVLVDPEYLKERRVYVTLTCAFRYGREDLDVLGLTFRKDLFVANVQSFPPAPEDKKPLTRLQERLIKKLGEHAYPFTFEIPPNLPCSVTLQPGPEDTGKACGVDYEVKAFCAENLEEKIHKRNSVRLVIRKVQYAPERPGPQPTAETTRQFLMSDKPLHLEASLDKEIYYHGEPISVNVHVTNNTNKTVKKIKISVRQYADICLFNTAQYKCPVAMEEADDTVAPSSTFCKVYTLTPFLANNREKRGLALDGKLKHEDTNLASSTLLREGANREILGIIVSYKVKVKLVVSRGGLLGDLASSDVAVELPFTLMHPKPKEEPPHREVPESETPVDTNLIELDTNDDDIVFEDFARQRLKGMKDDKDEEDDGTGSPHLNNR
# Method: Binding affinity (Kd) by ITC / thermal shift
# Stated Conditions: Cmpd-30 by ITC; other three by combination of ITC and thermal shift; read-out: Kd (dissociation constant), βarr1
Counter-ions that a name gives are not always drawn.
Report field: quantity (unit follows the number).

CN(C)c1n/c(=N/Cc2ccco2)ss1 [Cmpd-30, hydrobromide]: 9.3 nM

Okay, next one:
## Input Data request, read-out Kd, for C=C1C(=O)C23[C@H](O)C1CC[C@H]2[C@]12COC3(O)[C@@H](O)[C@@H]1C(C)(C)CC[C@@H]2O [Cmpd-5]
## Output 233 nM
